Value source: patent US5494790A

Target: α2→3 sialyltransferase encoded in the plasmid pAMoPRSAW17-31F (fused protein with the IgG-binding region of Staphylococcus aureus protein A) (Homo sapiens)
Construct: from 31st Phe to 329th Phe; made in house
Sequence (Q11206 35-333): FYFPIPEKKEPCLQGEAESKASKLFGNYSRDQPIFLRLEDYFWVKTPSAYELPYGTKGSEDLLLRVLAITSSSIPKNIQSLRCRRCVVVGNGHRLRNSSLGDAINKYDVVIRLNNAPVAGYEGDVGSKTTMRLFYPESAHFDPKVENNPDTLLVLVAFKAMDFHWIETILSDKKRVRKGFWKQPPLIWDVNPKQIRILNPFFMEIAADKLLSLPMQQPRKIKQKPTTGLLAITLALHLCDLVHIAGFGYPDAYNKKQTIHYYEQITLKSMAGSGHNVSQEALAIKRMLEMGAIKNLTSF
Test: Sialyltransferase activity on IgG Sepharose, HPLC of pyridylaminated sugar chain substrates (Table 2)
Type: biochemical
Conditions: activity to the substrate LNnT taken as 100
PROPERTY MEASURED: α2→3 Sialyltransferase activity, pAMoPRSAW17-31F, Relative activity
The response must contain the number and no unit.

Solved entries:
COMPOUND	VALUE REPORTED
CC(=O)N[C@H]1[C@H](O[C@H]2[C@@H](O)[C@@H](CO)O[C@@H](O[C@H]3[C@H](O)[C@@H](O)C(O)O[C@@H]3CO)[C@@H]2O)O[C@H](CO)[C@@H](O[C@@H]2O[C@H](CO)[C@H](O)[C@H](O)[C@H]2O)[C@@H]1O[C@@H]1O[C@@H](C)[C@@H](O)[C@@H](O)[C@@H]1O (stereo partly shown) [lacto-N-fucopentaose III]	8
CC(=O)N[C@H]1[C@H](O[C@H]2[C@@H](O)[C@@H](CO)O[C@@H](O[C@H]3[C@H](O)[C@@H](O)C(O)O[C@@H]3CO)[C@@H]2O)O[C@H](CO)[C@@H](O[C@@H]2O[C@H](CO)[C@H](O)[C@H](O)[C@H]2O)[C@@H]1O (stereo partly shown) [LNnT, Galβ1-4GlcNAcβ1-3Galβ1-4Glc]	100
CC(=O)N[C@H]1[C@H](O[C@H]2[C@@H](O)[C@@H](CO)O[C@@H](O[C@H]3[C@H](O)[C@@H](O)C(O)O[C@@H]3CO)[C@@H]2O)O[C@H](CO)[C@@H](O)[C@@H]1O[C@@H]1O[C@H](CO)[C@H](O)[C@H](O)[C@H]1O (stereo partly shown) [LNT, Galβ1-3GlcNAcβ1-3Galβ1-4Glc]	42

Turning to the following compound.
Problem: Give α2→3 Sialyltransferase activity, pAMoPRSAW17-31F, Relative activity for the following compound: CC(=O)N[C@H]1[C@H](O[C@H]2[C@@H](O)[C@@H](CO)O[C@@H](O[C@H]3[C@H](O[C@@H]4O[C@@H](C)[C@@H](O)[C@@H](O)[C@@H]4O)[C@@H](O)C(O)O[C@@H]3CO)[C@@H]2O)O[C@H](CO)[C@@H](O)[C@@H]1O[C@@H]1O[C@H](CO)[C@H](O)[C@H](O)[C@H]1O (stereo partly shown) [lacto-N-fucopentaose V]
Solution: 32

---

biological target: α2→3 sialyltransferase encoded in the plasmid pAMoPRSAW17-31F (fused protein with the IgG-binding region of Staphylococcus aureus protein A) (Homo sapiens, UniProt Q11206); construct: from 31st Phe to 329th Phe; made in house; test: Sialyltransferase activity on IgG Sepharose, HPLC of pyridylaminated sugar chain substrates (Table 2); format: biochemical; details: 0.1 mM substrate, 5 μl IgG Sepharose, 5 mM CMP-sialic acid, 37° C., 2 hours
PROPERTY MEASURED: α2→3 Sialyltransferase activity, pAMoPRSAW17-31F, pmol
Record the result as a number with its unit.

COMPOUND	VALUE REPORTED
CC(=O)N[C@H]1[C@H](O[C@H]2[C@@H](O)[C@@H](CO)O[C@@H](O[C@H]3[C@H](O[C@@H]4O[C@@H](C)[C@@H](O)[C@@H](O)[C@@H]4O)[C@@H](O)C(O)O[C@@H]3CO)[C@@H]2O)O[C@H](CO)[C@@H](O)[C@@H]1O[C@@H]1O[C@H](CO)[C@H](O)[C@H](O)[C@H]1O (stereo partly drawn)	36.3 pmol
CC(=O)N[C@H]1[C@H](O[C@H]2[C@@H](O)[C@@H](CO)O[C@@H](O[C@H]3[C@H](O)[C@@H](O)C(O)O[C@@H]3CO)[C@@H]2O)O[C@H](CO)[C@@H](O[C@@H]2O[C@H](CO)[C@H](O)[C@H](O)[C@H]2O)[C@@H]1O (stereo partly drawn)	113.8 pmol

Problem: Give α2→3 Sialyltransferase activity, pAMoPRSAW17-31F, pmol for the following compound: CC(=O)N[C@H]1[C@H](O[C@H]2[C@@H](O)[C@@H](CO)O[C@@H](O[C@H]3[C@H](O)[C@@H](O)C(O)O[C@@H]3CO)[C@@H]2O)O[C@H](CO)[C@@H](O[C@@H]2O[C@H](CO)[C@H](O)[C@H](O)[C@H]2O)[C@@H]1O[C@@H]1O[C@@H](C)[C@@H](O)[C@@H](O)[C@@H]1O (stereo partly drawn)
Solution: 9.4 pmol

---

tested on: α2→3 Sialyltransferase encoded in the plasmid pAMoPRSAL-35F (fused protein with the IgG-binding region of Staphylococcus aureus protein A); experiment: Sialyltransferase activity on IgG Sepharose, HPLC of pyridylaminated sugar chain substrates (Table 1); type: biochemical, human; conditions: 0.1 mM substrate, 5 μl IgG Sepharose, 5 mM CMP-sialic acid, 37° C., 2 hours
Examples of compounds with documented α2→3 Sialyltransferase activity, pAMoPRSAL-35F, pmol follow.
Write the number in pmol without appending the unit.

COMPOUND	VALUE REPORTED
CC(=O)N[C@H]1[C@H](O[C@H]2[C@@H](O)[C@@H](CO)O[C@@H](O[C@H]3[C@H](O)[C@@H](O)C(O)O[C@@H]3CO)[C@@H]2O)O[C@H](CO)[C@@H](O[C@@H]2O[C@H](CO)[C@H](O)[C@H](O)[C@H]2O)[C@@H]1O[C@@H]1O[C@@H](C)[C@@H](O)[C@@H](O)[C@@H]1O (stereo partly shown) [lacto-N-fucopentaose III]	8.1

Problem: Give α2→3 Sialyltransferase activity, pAMoPRSAL-35F, pmol for the following compound: CC(=O)N[C@H]1[C@H](O[C@H]2[C@@H](O)[C@@H](CO)O[C@@H](O[C@H]3[C@H](O)[C@@H](O)C(O)O[C@@H]3CO)[C@@H]2O)O[C@H](CO)[C@@H](O)[C@@H]1O[C@@H]1O[C@H](CO)[C@H](O)[C@H](O)[C@H]1O (stereo partly shown) [LNT, Galβ1-3GlcNAcβ1-3Galβ1-4Glc]
Solution: 23.8

Problem: Give α2→3 Sialyltransferase activity, pAMoPRSAL-35F, pmol for the following compound: CC(=O)N[C@H]1[C@H](O[C@H]2[C@@H](O)[C@@H](CO)O[C@@H](O[C@H]3[C@H](O[C@@H]4O[C@@H](C)[C@@H](O)[C@@H](O)[C@@H]4O)[C@@H](O)C(O)O[C@@H]3CO)[C@@H]2O)O[C@H](CO)[C@@H](O)[C@@H]1O[C@@H]1O[C@H](CO)[C@H](O)[C@H](O)[C@H]1O (stereo partly shown) [lacto-N-fucopentaose V]
Solution: 28.8

Problem: Give α2→3 Sialyltransferase activity, pAMoPRSAL-35F, pmol for the following compound: CC(=O)N[C@H]1[C@H](O[C@H]2[C@@H](O)[C@@H](CO)O[C@@H](O[C@H]3[C@H](O)[C@@H](O)C(O)O[C@@H]3CO)[C@@H]2O)O[C@H](CO)[C@@H](O[C@@H]2O[C@H](CO)[C@H](O)[C@H](O)[C@H]2O)[C@@H]1O (stereo partly shown) [LNnT, Galβ1-4GlcNAcβ1-3Galβ1-4Glc]
Solution: 51.3

---

target: α2→3 sialyltransferase encoded in the plasmid pAMoPRSAW17-31F (fused protein with the IgG-binding region of Staphylococcus aureus protein A) (Homo sapiens); construct: from 31st Phe to 329th Phe; made in house; assay: Sialyltransferase activity on IgG Sepharose, HPLC of pyridylaminated sugar chain substrates (Table 2); assay type: biochemical; settings: 0.1 mM substrate, 5 μl IgG Sepharose, 5 mM CMP-sialic acid, 37° C., 2 hours
PROPERTY MEASURED: α2→3 Sialyltransferase activity, pAMoPRSAW17-31F, pmol (pmol)
Write the number in pmol without appending the unit.

Problem: Give α2→3 Sialyltransferase activity, pAMoPRSAW17-31F, pmol for the following compound: CC(=O)N[C@H]1[C@H](O[C@H]2[C@@H](O)[C@@H](CO)O[C@@H](O[C@H]3[C@H](O)[C@@H](O)C(O)O[C@@H]3CO)[C@@H]2O)O[C@H](CO)[C@@H](O)[C@@H]1O[C@@H]1O[C@H](CO)[C@H](O)[C@H](O)[C@H]1O (stereo partly shown) [LNT, Galβ1-3GlcNAcβ1-3Galβ1-4Glc]
Solution: 47.5
